Tested on: Target C
MEASUREMENT PROTOCOL: RT-qPCR canonical junction panel assay, Target C mRNA
Format: cell-based
MEASUREMENT SETUP: Table 4, read-out: Target C IC50 (decrease in CJ mRNA levels)
Catalogue of IC50 readings, one per entry.

Worked examples follow.
COMPOUND	IC50
CCNC(=O)c1nc(-c2cc3cn(C)nc3c(C)c2O)nc2ccc(N3C[C@@H](C)N[C@@H](C)C3)cc12	1000 to 10000 nM
Cc1nc2c(F)c(O)c(-c3ccc4nc(N5CC[C@@H](NC(C)C)C5)ccc4n3)cc2o1 (single isomer, unassigned)	< 100 nM
Cc1cn2nc(-c3ncc4cc(N5CCNC6(CC6)C5)ccc4n3)cc(C)c2n1	> 10000 nM
Cn1cc2cc(-c3ncc4nc(C5CCNCC5)ccc4n3)c(O)c(F)c2n1	100 to 1000 nM
Cc1c(O)c(-c2nc(C(=O)N(C)C)c3cc(N4CCNCC4)ccc3n2)cc2cn(C)nc12	1000 to 10000 nM
CN[C@@H]1CCN(c2cc3c(Cl)cc(-c4cc5cn(C)nc5c(C)c4O)nc3cc2C)C1	> 10000 nM

Measured IC50 of `Cn1cc2cc(-c3ccc4nc(N5CC[C@H](N[C@H]6C[C@@H](F)C6)C5)ccc4n3)c(O)cc2n1` : 1000 to 10000 nM

Measured IC50 of Cc1nc2c(C)c(O)c(-c3ccc4nc(N5CC[C@H](N[C@H]6C[C@H](F)C6)C5)ccc4n3)cc2o1 (single isomer, unassigned) : < 100 nM

Measured IC50 of Cc1c(O)c(-c2ccc3nc(N4CCC(NC5CCC5)C4)ccc3n2)cc2cn(C)nc12 (stereo not shown) : 100 to 1000 nM

Measured IC50 of Cn1cc2cc(-c3ccc4nc(N5CCC(NC6(C)CC6)C5)ccc4n3)c(O)cc2n1 (stereo not shown) : < 100 nM

Measured IC50 of `Cc1c(O)c(-c2nc(C(N)=O)c3cc(N4C[C@H](C)N[C@@H](C)C4)ccc3n2)cc2cn(C)nc12` : > 10000 nM

Measured IC50 of `Cc1c(O)c(-c2ccc3nc(N4CC[C@H](NC(C)C)C4)ccc3n2)cc2cn(C)nc12` : < 100 nM

Measured IC50 of Cc1c(O)c(-c2ccc3nc(N4CC[C@@H](NC5CCC5)C4)ccc3n2)cc2cn(C)nc12 (single isomer, unassigned) : < 100 nM

* * *

System: HTT
MEASUREMENT PROTOCOL: HiBiT protein abundance assay, HTT (K562 HiBiT knock-in)
Assay type: cell-based, human
MEASUREMENT SETUP: HiBiT knock-in K562 cells, 24 hours, top dose 10 μM
PROPERTY LABEL: IC50

Worked examples follow.
COMPOUND	SYSTEM NAME	TEST VALUE
CNC(=O)c1nc(-c2cc3cn(C)nc3c(C)c2O)nc2ccc(N3CCNCC3)cc12	HTT	100 to 1000 nM
Cc1nc2cc(O)c(-c3ccc4nc(N5CCC(N)CC5)ccc4n3)cc2o1	HTT	1000 to 10000 nM
Cn1cc2cc(-c3ccc4nc(C5CCNCC5)ccc4n3)ccc2n1	HTT	100 to 1000 nM
CN[C@H]1CCN(c2ccc3nc(-c4cc5cn(C)nc5c(C)c4O)ncc3n2)C1 (single isomer, unassigned)	HTT	100 to 1000 nM
Cc1cn2cc(-c3nc(C(=O)NC4CCC4)c4cc(N5C[C@@H](C)N[C@@H](C)C5)ccc4n3)cc(F)c2n1	HTT	100 to 1000 nM
Cc1nc2cc(O)c(-c3ccc4nc(N5CC[C@H](NC(C)C)C5)ccc4n3)cc2o1	HTT	< 100 nM
Cc1nc2c(C)c(O)c(-c3ccc4nc(N5CC[C@H](NC(C)(C)C)C5)ncc4n3)cc2o1	HTT	< 100 nM
COc1cc2nn(C)cc2cc1-c1ccc2cc(C3CCNCC3)c(F)cc2n1	HTT	> 10000 nM

I looked up `Cc1cn2cc(-c3ccc4cc(N5C[C@@H](C)N[C@@H](C)C5)cc(F)c4n3)cc(F)c2n1` and its IC50 for HTT was 100 to 1000 nM

I looked up Cc1c(O)c(-c2ccc3nc(N4CCC(NCC5CC5)C4)ccc3n2)cc2cn(C)nc12 (stereo not drawn) and its IC50 for HTT was < 100 nM

I looked up Cn1cc2cc(-c3ccc4nc(N5CC[C@@H](NC6CCC6)C5)ccc4n3)c(O)c(F)c2n1 (single isomer, unassigned) and its IC50 for HTT was < 100 nM

I looked up `Cc1c(O)c(-c2ccc3nc(N4CC[C@H](NC5CC5)C4)ccc3n2)cc2cn(C)nc12` and its IC50 for HTT was < 100 nM

I looked up `Cc1nc2cc(O)c(-c3ccc4nc(N5CCN[C@@H](C(C)C)C5)ccc4n3)cc2o1` and its IC50 for HTT was 100 to 1000 nM

I looked up `CNC(=O)c1nc(-c2cc3cn(C)nc3c(C)c2O)nc2ccc(N3CCNC4(CC4)C3)cc12` and its IC50 for HTT was 100 to 1000 nM

I looked up `C[C@@H]1CN(c2ccc3nc(-c4cc5cn(C)nc5c(F)c4O)ncc3c2)C[C@H](C)N1` and its IC50 for HTT was 1000 to 10000 nM

I looked up COc1cc2nc(C)sc2cc1-c1ccc2nc(N3CCC(NC(C)(C)C)C3)ccc2n1 (stereo not drawn) and its IC50 for HTT was 1000 to 10000 nM

* * *

Tested on: HTT
MEASUREMENT PROTOCOL: HiBiT protein abundance assay, HTT (K562 HiBiT knock-in)
Type: cell-based, human
MEASUREMENT SETUP: HiBiT knock-in K562 cells, 24 hours, top dose 10 μM
Protocol: Compounds described herein were used to screen for effects on quantitative protein abundance using a HiBit assay system (Promega). Quantitative protein abundance was determined by measuring the protein levels of HiBit-tagged protein targets expressed in cell culture via luminescence using the Nano-Glo HiBiT Lytic Detection System, which uses a split complementation assay format to reconstitute NanoBiT enzyme to generate a luminescent signal. […]
pIC50: −log10 of the molar value.
PROPERTY LABEL: pIC50

Worked examples follow.
COMPOUND	pIC50
Cc1nc2cc(O)c(-c3ccc4nc(N5CC[C@@H](NC(C)C)C5)ccc4n3)cc2o1	> 7.00
COc1cc(-c2ccc3nc(N4CCC(NC(C)(C)C)C4)ncc3n2)cnn1 (stereo not shown)	5.00 to 6.00
Cc1nc2c(F)c(O)c(-c3ccc4nc(N5CCC(NC6CCC6)C5)ccc4n3)cc2o1 (stereo not shown)	> 7.00

Now look at this one.
Measured pIC50 of `Cc1nc2c(C)c(O)c(-c3ccc4cc(N5CC[C@H](NC6CC6)C5)ncc4n3)cc2o1` : 6.00 to 7.00

* * *

Test system: HTT
MEASUREMENT PROTOCOL: HiBiT protein abundance assay, HTT (K562 HiBiT knock-in)
Format: cell-based, human
MEASUREMENT SETUP: HiBiT knock-in K562 cells, 24 hours, top dose 10 μM
PROPERTY LABEL: IC50

Worked examples follow.
COMPOUND	IC50
CNC(=O)c1nc(-c2cc3cn(C)nc3c(C)c2O)nc2ccc(N3CCC(N4CCC4)CC3)cc12	100 to 1000 nM
Cn1cc2cc(-c3ccc4nc(N5CCC(N)C5)ccc4n3)c(O)c(F)c2n1 (stereo not drawn) [Compound 238]	< 100 nM
Cc1cn2cc(-c3ccc4nc(C5CCNCC5)ccc4n3)c(O)c(C)c2n1	100 to 1000 nM
Cn1cc2cc(-c3ncc4cc(N5CCC(N6CCC6)CC5)ccc4n3)c(O)c(F)c2n1	100 to 1000 nM
Cn1cc2cc(-c3ccc4nc(N5CCC6(CCN6)C5)ccc4n3)c(O)cc2n1 (stereo not drawn)	100 to 1000 nM
Cc1c(O)c(-c2ncc3nc([C@@H]4CCNC4)ccc3n2)cc2cn(C)nc12 (single isomer, unassigned)	1000 to 10000 nM

I looked up `CC(C)N[C@@H]1CCN(c2ccc3nc(-c4cc5cn(C)nc5cc4O)ccc3n2)C1` and its IC50 for HTT was < 100 nM

I looked up `Cn1cc2cc(-c3ccc4nc(N5CC[C@H](NC(C)(C)C)C5)ccc4n3)c(O)cc2n1` and its IC50 for HTT was < 100 nM

I looked up `Cc1nc2cc(O)c(-c3ccc4nc(N5CC[C@@H](NC6CCC6)C5)ccc4n3)cc2o1` and its IC50 for HTT was < 100 nM

I looked up `Cc1c(O)c(-c2nc(-c3cncs3)c3cc(N4CCNCC4)ccc3n2)cc2cn(C)nc12` and its IC50 for HTT was 1000 to 10000 nM

I looked up Cc1c(O)c(-c2ccc3cc(N4C[C@H](C)N[C@@H](C)C4)cc(F)c3n2)cc2cn(C)nc12 (single isomer, unassigned) [Compound 800, 2,2,2-trifluoroacetate] and its IC50 for HTT was < 100 nM
